Biological target: Cellular tumor antigen p53 (Homo sapiens)
Experiment: nuclear p53 accumulation, HPV+ cells – imaging, p53-positive nuclei imaging, 24 h, 48 h (AID 1508601)
Details: 24/48 h, stronger effect = higher value, concentration not given here
About 85 (1%) of roughly 5,700 compounds were called active. This is one part of a sample in which actives are shown more often than they occur.
Below: a set of entries, each annotated with reported p53-positive nuclei, normalised.

Compound | Test target | p53-positive nuclei, normalised
O=C(Nc1ccc2nccnc2c1)c1csc(Cc2ccccc2)n1 | Cellular tumor antigen p53 (Homo sapiens) | 0.478% (inactive)
COc1cc(C(=O)NCc2ccc(OCCN(C)C)cc2)cc(OC)c1OC | Cellular tumor antigen p53 (Homo sapiens) | -0.214% (inactive)
CCCCc1ccc(N=CNO)c(C)c1 | Cellular tumor antigen p53 (Homo sapiens) | -0.0134% (inactive)

// lookup p53-positive nuclei, normalised for `CCCCCCCCCC(=O)CC(=O)N[C@H]1CCOC1=O`
0.0451% (inactive)

* * *

Biological target: Cellular tumor antigen p53 (Homo sapiens)
Experiment: nuclear p53 accumulation, HPV+ cells – imaging, p53-positive nuclei imaging, 24 h, 48 h (AID 1508601)
Details: 24/48 h, Library stock concentration: 3.33 mM, stronger effect = higher value
About 85 (1%) of roughly 5,700 compounds were called active. The full list was thinned out, with actives kept by preference.
Collected p53-positive nuclei, normalised values appear next to each entry.

Recorded p53-positive nuclei, normalised of `CCCCc1nc2cc(C=CC(=O)NO)ccc2n1CCN(CC)CC` , please.
87.1% (active)

Try the molecule CCc1cc2c(cc1CC)CC(NCC(O)c1ccc(O)c3[nH]c(=O)ccc13)C2 (centres undefined)
-0.298% (inactive)

Now this one: `Cc1[nH]c2ccccc2c1CCNC(=O)c1cccs1`
-0.163% (inactive)

Okay, and `Cc1[nH]c2ccccc2c1CCNCc1ccc(C=CC(=O)NO)cc1` ?
107% (active)

What would you report for Cc1cc(OCCCS(C)(=O)=O)cc(C)c1-c1cccc(COc2ccc3c(c2)OCC3CC(=O)O)c1 (centres undefined) ?
-0.149% (inactive)

Next entry: O=C(Nc1ccccc1Br)NC1CCN(c2ccc(C(F)(F)F)cn2)C1 (centres undefined)
-0.163% (inactive)

* * *

Biological target: Cellular tumor antigen p53 (Homo sapiens) (UniProt P04637)
Sequence (P04637 whole entry, looked up): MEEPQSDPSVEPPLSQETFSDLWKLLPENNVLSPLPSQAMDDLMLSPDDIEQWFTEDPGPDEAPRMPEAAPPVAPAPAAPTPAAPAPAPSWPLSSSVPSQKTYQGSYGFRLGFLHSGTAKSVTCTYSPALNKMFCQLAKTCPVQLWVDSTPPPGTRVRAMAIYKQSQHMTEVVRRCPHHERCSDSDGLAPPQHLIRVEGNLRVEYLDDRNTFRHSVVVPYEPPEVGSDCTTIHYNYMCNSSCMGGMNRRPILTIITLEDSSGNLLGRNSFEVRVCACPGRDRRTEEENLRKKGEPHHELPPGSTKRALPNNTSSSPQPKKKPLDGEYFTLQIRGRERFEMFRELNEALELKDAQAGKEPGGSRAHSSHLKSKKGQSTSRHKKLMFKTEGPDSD
Assay: nuclear p53 accumulation, HPV+ cells – imaging, p53-positive nuclei imaging, 24 h, 48 h (AID 1508601)
Details: 24/48 h, measured here: p53 positive nuclei at 24 h, Library stock concentration: 3.333 mM, stronger effect = higher value
The campaign covered roughly 5,700 compounds. About 85 (1%) were called active. Shown is part of a subset that was picked to be rich in actives.
Readout name: p53-positive nuclei, normalised (%)
Form entry: value (%) — number only.

Compound | p53-positive nuclei, normalised [%]
CC(=O)OC1C(=O)[C@]2(C)C(O)CC3OC[C@@]3(OC(C)=O)C2C(OC(=O)c2ccccc2)[C@]2(O)CC(OC(=O)C(O)C(NC(=O)c3ccccc3)c3ccccc3)C(C)=C1C2(C)C (some centres not stated) | 0.515
Nc1ccn(C2C=C(CO)C(O)C2O)c(=O)n1 (configuration not stated) | 0.184
CN(C)CCC(CSc1ccccc1)Nc1ccc(S(=O)(=O)NC(=O)c2ccc(N3CCN(Cc4ccccc4-c4ccc(Cl)cc4)CC3)cc2)cc1[N+](=O)[O-] (configuration not stated) | -0.165
COC(=O)C#Cc1ccc([N+](=O)[O-])cc1 | 0.591

Which p53-positive nuclei, normalised value belongs to NC(=O)c1ncn(C2OC(CO)C(O)C2O)c1O (configuration not stated) ?
-0.128

What do you have for `CN(NC(=O)CC(=O)NN(C)C(=S)c1ccccc1)C(=S)c1ccccc1` ?
103

How about `COc1ccc(N2C(=O)C(=Cc3ccc([N+](=O)[O-])s3)SC2=S)cc1` ?
85.9

* * *

Target: Cellular tumor antigen p53 (Homo sapiens)
Experiment: nuclear p53 accumulation, HPV+ cells – imaging, p53-positive nuclei imaging, 24 h, 48 h (AID 1508601)
Details: 24/48 h, Library stock concentration: 1.111 mM, stronger effect = higher value
Hit rate of the full screen: of about 5,700 compounds, about 85 (1%) were called active. For the sample, actives were picked, then their nearest neighbours and some compounds at random.
Readout name: p53-positive nuclei, normalised (%)
Express your answer in %, writing the number without its unit.

Molecule | p53-positive nuclei, normalised / %
OCC1OC(n2cnc3c2NC=NCC3O)CC1O (stereo unspecified) | -0.0904
NC(=O)c1ncn(C2OC(CO)C(O)C2O)c1O (stereo unspecified) | -0.129
C=C1C(=O)OC(CCCCCCCC)C1C(=O)O (stereo unspecified) | -0.0515
Nc1ccn(C2OC(CO)C(O)C2F)c(=O)n1 (stereo unspecified) | 0.292
O=C(O)c1ccccc1SC1=NS(=O)(=O)c2ccccc21 | 0.133

Quick one: p53-positive nuclei, normalised for `COC(=O)C#Cc1ccc([N+](=O)[O-])cc1` ?
-0.122

* * *

Biological target: Cellular tumor antigen p53 (Homo sapiens) (UniProt P04637)
Experiment: nuclear p53 accumulation, HPV+ cells – imaging, p53-positive nuclei imaging, 24 h, 48 h (AID 1508601)
Conditions: 24/48 h, measured here: p53 positive nuclei at 24 h, Library stock concentration: 2 mM, stronger effect = higher value
The whole screen tested about 5,700 compounds, of which about 85 (1%) were called active. Many of the other results were omitted from the sample, so actives are more common in it than they were.
Readout name: p53-positive nuclei, normalised

I would be grateful if you could share the reported p53-positive nuclei, normalised for CC(C)N(CCCNC(=O)Nc1ccc(C(C)(C)C)cc1)CC1OC(n2cc(Br)c3c(N)ncnc32)C(O)C1O (centres undefined) .
-0.162%

Entry CC(C)CC(C(=O)NC(Cc1ccc(OCc2ccccc2)cc1)C(=O)NC(C)(C)C)N(C)Cc1ccc(C(C)(C)C)cc1 (centres undefined) please
-0.108%

Moving on to the next compound: `COc1cc(OC)cc(-c2ccc3ncc4ccc(=O)n(-c5ccc(N6CCNCC6)c(C(F)(F)F)c5)c4c3c2)c1`
0.0288%

* * *

Listed here: items and their measured nuclei count, normalised.
Assay: nuclear p53 accumulation, HPV+ cells – imaging, p53-positive nuclei imaging, 24 h, 48 h (AID 1508601)
Details: 24/48 h, measured here: cell number at 48 h, concentration not given here
Among all 5,700 compounds or so, about 85 (1%) were called active. The list comes from a sample in which actives are over-represented; it also holds close analogues and randomly drawn compounds.
Please give a number only; it is taken to be in %.

Past entries and their recorded results:
Compound | Unit name | Endpoint result
CC(C)C[C@H](NC(=O)[C@@H](O)[C@H](N)Cc1ccccc1)C(=O)O | % | 105
CCCCCCCCCCCCCCCCCCCC(=O)NCCO | % | 108
O=C(CCn1cnnn1)N1CCc2[nH]nc(-c3ccc4c(c3)OCO4)c2C1 | % | 111
Cc1nn(C)c(C)c1-c1ccnc(NCC(C)Oc2cccnc2)n1 (stereo unspecified) | % | 101
O=S(=O)(NO)c1ccccc1 | % | 77

Fill in: nuclei count, normalised of `O=C(/C=C/c1cccc(C(=O)NO)c1)NO` is ___
107

* * *

Molecular target: Cellular tumor antigen p53 (Homo sapiens) (UniProt P04637)
Experiment: nuclear p53 accumulation, HPV+ cells – imaging, p53-positive nuclei imaging, 24 h, 48 h (AID 1508601)
Conditions: 24/48 h, Library stock concentration: 3.33 mM
Out of some 5,700 compounds screened, about 85 (1%) were called active. No stated cut-off is given here; in the data, active means p53-positive nuclei above about 36% (passing the limit was not always enough); inactive means the rest. The sample holds actives, similar compounds and a random draw of the others, so the mix is not that of the screen.
Give your call using only these classes: active, inactive

Compound | Discrete label
CC(C=CC(=O)NO)=CC(C)C(=O)c1ccc(N(C)C)cc1 (stereo not given) | active
CC(C)(CO)c1cc2cc(NC(=O)C3(c4ccc5c(c4)OC(F)(F)O5)CC3)c(F)cc2n1CC(O)CO (stereo not given) | inactive

Assay result, entry `O=C(O)c1cc(-c2ccccc2)nc2ccccc12` — outcome?
inactive

Now consider Cc1cn(C2OC(CO)C(O)C2F)c(=O)[nH]c1=O (stereo not given) and answer again.
inactive

Can you handle `Cn1cc(C2=C(c3cn(CCCSC(=N)N)c4ccccc34)C(=O)NC2=O)c2ccccc21` next?
inactive

Continue with CCCCCOC(=O)Nc1nc(=O)n(C2OC(C)C(O)C2O)cc1F (stereo not given)
inactive

Can you check `CCc1c2c(nc3ccc(OC(=O)N4CCC(N5CCCCC5)CC4)cc13)-c1cc3c(c(=O)n1C2)COC(=O)[C@@]3(O)CC` next?
inactive

What about this compound? CCC(CC)(NC(=O)C(C)C)C(=O)NC(CCCN=C(N)N)C(=O)NC1(C(=O)NC(c2ccc(F)cc2)c2ccc(F)cc2)CCCC1 (stereo not given)
inactive

Same for `COc1cc(OC)c2c(=O)[nH]c(-c3cc(C)c(OCCO)c(C)c3)nc2c1`
inactive

Another compound to look at: O=C(O)C1=CC(O)C(O)C(O)C1 (stereo not given)
inactive
